Test system: 786-0 complex spheroid viability
Experiment: Anticancer human tumor 786-0 cell line growth inhibition;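 note: spheroids exposed to agents for seven days before readout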
Conditions: second compound 10 µM; first compound 1 µM; active compounds read low
Label 1 (yes) when viability, T/C < 40%; otherwise 0 (no).

// query Would you kindly verify if viability, T/C of CC(C)c1c(-c2ccccc2)nc2c(C#N)c[nH]n2c1=O + NC1CC1c1ccc(-c2cccc(O)c2)cc1 is strictly less than 40%?
// result 0 (no)

// query hey, is viability, T/C for CC1COCCN1c1cc(C2(S(C)(=N)=O)CC2)nc(-c2ccnc3[nH]ccc23)n1 (stereo not given) + NC1CC1c1ccc(-c2cccc(O)c2)cc1 lower than 40% or not?
// result 1 (yes)

// query Quick check: does COc1ccc([C@@H](O)c2cc(-c3ncnc4cc(N5CCOCC5)ccc34)c(F)cc2Cl)nn1 + NC1CC1c1ccc(-c2cccc(O)c2)cc1 have viability, T/C under 40%?
// result 0 (no)

// query Take the compound O=C(C=Cn1cnc(-c2cc(C(F)(F)F)cc(C(F)(F)F)c2)n1)NNc1cnccn1 + NC1CC1c1ccc(-c2cccc(O)c2)cc1 and say whether its viability, T/C is less than 40%.
// result 1 (yes)

// query I'd appreciate it if you could check whether CC1(C)CCC(CN2CCN(c3ccc(C(=O)NS(=O)(=O)c4ccc(NCC5CCOCC5)c([N+](=O)[O-])c4)c(Oc4cnc5[nH]ccc5c4)c3)CC2)=C(c2ccc(Cl)cc2)C1 + NC1CC1c1ccc(-c2cccc(O)c2)cc1 has viability, T/C smaller than 40%.
// result 0 (no)
